Would you mind telling me the reported apparent KD of MS2 coat protein of each entry?
# System: MS2 coat protein
# method notes: apparent KD of MS2 coat protein; designed switch direction (-1 OFF switch, 1 ON switch): 1; higher = weaker reporter binding
# conditions: Eterna round: R98; input ligand: none

residue sequence	apparent KD of MS2 coat protein
GACGAAAUCUUAGGAUAUCGAGUGGAAUACACUCGAGAAGGAAGAUAUACCUGAGGAUCACCCAGGUAAAACUGGACGUCAAUA [Same State NG1 - A3C, U17G Submission 8H U68A, U7A]	29.8 nM
AAAACAUGAGGAUCACCCAUGUAAAGAUCGGUUAUUAAAAGUGAGGAUAUACAAAAUUUUAUAUAGUAGAAGGCACUGGGUACA [JR_SSNG3_Sub001]	27.8 nM
UAACUAAUAUACACAUGAGGAUCACCCAUGUCCACCCGUGGACAGGAUAUCUGGCCGCGCCGGCUGGAGAAGGGUCCGUAUUGU [Arianesge]	56.2 nM
GUAGCAUACUGAGGAUAUUCAUAUAAUAAAUAAACAUGAGGAUCACCCAUGUGGCGAAAGCCUUGGGAGAAGGCAGAAUGCUAC [Xeonanis 55 7]	511 nM
GUAGCUAUCGGAGGAUAUUCAUAGCCGAGAGGCACAUGAGGAUCACCCAUGUGCGGAAACGCUUGGGAGAAGGCCGAUAGCUAC [Mat - Same State NG 2 - JL Mod - D77]	21.5 nM

Here's the next entry for you.
The sequence identified as CCACAACAUUGAGGAUAUGCACAGGAUCACCGUGUAGAAGGCAUCAGGGAGAAGGUGCAGAGGAUCACCCUGUAAGGAUAUCUA [pwkr2 ssNG1 DX.8] registered its apparent KD of MS2 coat protein at 340 nM

Attribution: the supplement of paper PMC9170038
